Target: Vasopressin V1a receptor (Rattus norvegicus, UniProt P30560)
Sequence (P30560 whole entry): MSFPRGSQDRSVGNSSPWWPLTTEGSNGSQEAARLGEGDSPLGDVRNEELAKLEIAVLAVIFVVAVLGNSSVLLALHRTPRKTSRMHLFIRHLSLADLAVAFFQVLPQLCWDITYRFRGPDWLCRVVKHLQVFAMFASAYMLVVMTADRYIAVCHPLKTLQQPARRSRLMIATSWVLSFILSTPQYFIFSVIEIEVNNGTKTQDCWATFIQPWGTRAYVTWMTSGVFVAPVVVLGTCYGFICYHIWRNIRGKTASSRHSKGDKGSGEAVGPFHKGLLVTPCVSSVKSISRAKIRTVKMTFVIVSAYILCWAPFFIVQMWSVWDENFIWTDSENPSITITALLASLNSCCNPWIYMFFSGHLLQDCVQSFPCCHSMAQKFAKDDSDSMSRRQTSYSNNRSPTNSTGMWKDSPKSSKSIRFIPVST
Test: Displacement of [3H]AVP from vasopressin V1a receptor in rat liver membrane
Type: cell membranes
Positions of bridges follow the written chain, without caps; N, C: chain ends. Non-standard residues stand in square brackets, D forms with d. Residues, ends and D or L forms follow the SMILES beside them. Cha = N[C@@H](CC1CCCCC1)C(=O)O; Orn = NCCC[C@H](N)C(=O)O; Dab = NCC[C@H](N)C(=O)O; Mpa = O=C(O)CCS
recorded endpoint: Ki

>>> assay_result("N=C(N)NCCC[C@@H]1NC(=O)[C@H](Cc2ccccc2)NC(=O)[C@H](Cc2ccc(O)cc2)NC(=O)CCSSC[C@@H](C(=O)N2CCC[C@H]2C(=O)N[C@@H](CCCN)C(=O)NCC(N)=O)NC(=O)[C@H](CC(N)=O)NC1=O ([Mpa]YFRNCP[Orn]G-NH2; disulfide 1-6)")
"67 nM (antagonist)"
>>> assay_result("CC(C)[C@@H]1NC(=O)[C@H](Cc2ccccc2)NC(=O)[C@H](Cc2ccc(O)cc2)NC(=O)CCSSC[C@@H](C(=O)N2CCC[C@H]2C(=O)N[C@H](CCCNC(=N)N)C(=O)NCC(N)=O)NC(=O)[C@H](CC(N)=O)NC1=O ([Mpa]YFVNCP[dR]G-NH2; disulfide 1-6)")
"316 nM (antagonist)"
>>> assay_result("CC(C)[C@@H]1NC(=O)[C@H](Cc2ccccc2)NC(=O)[C@H](Cc2ccc(O)cc2)NC(=O)CCSSC[C@@H](C(=O)N2CCC[C@H]2C(=O)N[C@@H](CCCN=C(N)N)C(=O)NCC(N)=O)NC(=O)[C@H](CC(N)=O)NC1=O ([Mpa]YFVNCPRG-NH2; disulfide 1-6)")
"60 nM (antagonist)"
>>> assay_result("NC(=O)CNC(=O)[C@H](CCCN=C(N)N)NC(=O)[C@@H]1CCCN1C(=O)[C@@H]1CSSCCC(=O)N[C@@H](Cc2ccc(O)cc2)C(=O)N[C@@H](Cc2ccccc2)C(=O)N[C@@H](CC2CCCCC2)C(=O)N[C@@H](CC(N)=O)C(=O)N1 ([Mpa]YF[Cha]NCPRG-NH2; disulfide 1-6)")
"2300 nM (antagonist)"
>>> assay_result("N=C(N)NCCC[C@@H]1NC(=O)[C@H](Cc2ccccc2)NC(=O)[C@H](Cc2ccc(O)cc2)NC(=O)CCSSC[C@@H](C(=O)N2CCC[C@H]2C(=O)N[C@@H](CCN)C(=O)NCC(N)=O)NC(=O)[C@H](CC(N)=O)NC1=O ([Mpa]YFRNCP[Dab]G-NH2; disulfide 1-6)")
"25 nM (antagonist)"
>>> assay_result("NCCC[C@H](NC(=O)[C@@H]1CCCN1C(=O)[C@@H]1CSSCCC(=O)N[C@@H](Cc2ccc(O)cc2)C(=O)N[C@@H](Cc2ccccc2)C(=O)N[C@@H](CC2CCCCC2)C(=O)N[C@@H](CC(N)=O)C(=O)N1)C(=O)NCC(N)=O ([Mpa]YF[Cha]NCP[Orn]G-NH2; disulfide 1-6)")
"2900 nM (antagonist)"
>>> assay_result("N=C(N)NCCC[C@@H]1NC(=O)[C@H](Cc2ccccc2)NC(=O)[C@H](Cc2ccc(O)cc2)NC(=O)CCSSC[C@@H](C(=O)N2CCC[C@H]2C(=O)N[C@@H](CCCCN)C(=O)NCC(N)=O)NC(=O)[C@H](CC(N)=O)NC1=O ([Mpa]YFRNCPKG-NH2; disulfide 1-6)")
"130 nM (antagonist)"
>>> assay_result("CC(C)C[C@@H]1NC(=O)[C@H](Cc2ccccc2)NC(=O)[C@H](Cc2ccc(O)cc2)NC(=O)CCSSC[C@@H](C(=O)N2CCC[C@H]2C(=O)N[C@@H](CCCCN)C(=O)NCC(N)=O)NC(=O)[C@H](CC(N)=O)NC1=O ([Mpa]YFLNCPKG-NH2; disulfide 1-6)")
"3800 nM (antagonist)"
>>> assay_result("NCCC[C@@H]1NC(=O)[C@H](Cc2ccccc2)NC(=O)[C@H](Cc2ccc(O)cc2)NC(=O)CCSSC[C@@H](C(=O)N2CCC[C@H]2C(=O)N[C@@H](CCCN)C(=O)NCC(N)=O)NC(=O)[C@H](CC(N)=O)NC1=O ([Mpa]YF[Orn]NCP[Orn]G-NH2; disulfide 1-6)")
"1300 nM (antagonist)"
>>> assay_result("NCC[C@H](NC(=O)[C@@H]1CCCN1C(=O)[C@@H]1CSSCCC(=O)N[C@@H](Cc2ccc(O)cc2)C(=O)N[C@@H](Cc2ccccc2)C(=O)N[C@@H](CC2CCCCC2)C(=O)N[C@@H](CC(N)=O)C(=O)N1)C(=O)NCC(N)=O ([Mpa]YF[Cha]NCP[Dab]G-NH2; disulfide 1-6)")
"4400 nM (antagonist)"
>>> assay_result("N=C(N)NCCC[C@H](NC(=O)[C@@H]1CCCN1C(=O)[C@@H]1CSSCCC(=O)N[C@H](Cc2cccnc2)C(=O)N[C@@H](Cc2ccccc2)C(=O)N[C@@H](CCC(N)=O)C(=O)N[C@@H](CC(N)=O)C(=O)N1)C(=O)NCC(N)=O")
"450 nM (antagonist)"
>>> assay_result("NCCC[C@@H]1NC(=O)[C@H](Cc2ccccc2)NC(=O)[C@H](Cc2ccc(O)cc2)NC(=O)CCSSC[C@@H](C(=O)N2CCC[C@H]2C(=O)N[C@@H](CCCN=C(N)N)C(=O)NCC(N)=O)NC(=O)[C@H](CC(N)=O)NC1=O ([Mpa]YF[Orn]NCPRG-NH2; disulfide 1-6)")
"900 nM (antagonist)"
>>> assay_result("N=C(N)NCCC[C@@H]1NC(=O)[C@H](Cc2ccccc2)NC(=O)[C@H](Cc2ccc(O)cc2)NC(=O)CCSSC[C@@H](C(=O)N2CCC[C@H]2C(=O)N[C@@H](CCCN=C(N)N)C(=O)NCC(N)=O)NC(=O)[C@H](CC(N)=O)NC1=O ([Mpa]YFRNCPRG-NH2; disulfide 1-6)")
"12.9 nM (antagonist)"

---

Each item that follows carries a reported Ki.
Target: Vasopressin V1a receptor (Rattus norvegicus)
Test: Displacement of [3H]AVP from vasopressin V1a receptor in rat liver membrane
Format: cell membranes
Positions of bridges follow the written chain, without caps; N, C: chain ends. Non-standard residues stand in square brackets, D forms with d. Residues, ends and D or L forms follow the SMILES beside them. Cha = N[C@@H](CC1CCCCC1)C(=O)O; Orn = NCCC[C@H](N)C(=O)O; Dab = NCC[C@H](N)C(=O)O; Dap = NC[C@H](N)C(=O)O; Mpa = O=C(O)CCS
recorded endpoint: Ki

>>> assay_result("NC[C@H](NC(=O)[C@@H]1CCCN1C(=O)[C@@H]1CSSCCC(=O)N[C@@H](Cc2ccc(O)cc2)C(=O)N[C@@H](Cc2ccccc2)C(=O)N[C@@H](CC2CCCCC2)C(=O)N[C@@H](CC(N)=O)C(=O)N1)C(=O)NCC(N)=O ([Mpa]YF[Cha]NCP[Dap]G-NH2; disulfide 1-6)")
"1800 nM (antagonist)"
>>> assay_result("CC(C)C[C@@H]1NC(=O)[C@H](Cc2ccccc2)NC(=O)[C@H](Cc2ccc(O)cc2)NC(=O)CCSSC[C@@H](C(=O)N2CCC[C@H]2C(=O)N[C@@H](CCN)C(=O)NCC(N)=O)NC(=O)[C@H](CC(N)=O)NC1=O ([Mpa]YFLNCP[Dab]G-NH2; disulfide 1-6)")
"1000 nM (antagonist)"
>>> assay_result("CC(C)C[C@@H]1NC(=O)[C@H](Cc2ccccc2)NC(=O)[C@H](Cc2ccc(O)cc2)NC(=O)CCSSC[C@@H](C(=O)N2CCC[C@H]2C(=O)N[C@@H](CCCN=C(N)N)C(=O)NCC(N)=O)NC(=O)[C@H](CC(N)=O)NC1=O ([Mpa]YFLNCPRG-NH2; disulfide 1-6)")
"1250 nM (antagonist)"
>>> assay_result("CC(C)C[C@@H]1NC(=O)[C@H](Cc2ccccc2)NC(=O)[C@H](Cc2ccc(O)cc2)NC(=O)CCSSC[C@@H](C(=O)N2CCC[C@H]2C(=O)N[C@@H](CN)C(=O)NCC(N)=O)NC(=O)[C@H](CC(N)=O)NC1=O ([Mpa]YFLNCP[Dap]G-NH2; disulfide 1-6)")
"3300 nM (antagonist)"
>>> assay_result("NCCCC[C@H](NC(=O)[C@@H]1CCCN1C(=O)[C@@H]1CSSCCC(=O)N[C@@H](Cc2ccc(O)cc2)C(=O)N[C@@H](Cc2ccccc2)C(=O)N[C@@H](CCCN)C(=O)N[C@@H](CC(N)=O)C(=O)N1)C(=O)NCC(N)=O ([Mpa]YF[Orn]NCPKG-NH2; disulfide 1-6)")
"2800 nM (antagonist)"
>>> assay_result("NCCCC[C@H](NC(=O)[C@@H]1CCCN1C(=O)[C@@H]1CSSCCC(=O)N[C@@H](Cc2ccc(O)cc2)C(=O)N[C@@H](Cc2ccccc2)C(=O)N[C@@H](CC2CCCCC2)C(=O)N[C@@H](CC(N)=O)C(=O)N1)C(=O)NCC(N)=O ([Mpa]YF[Cha]NCPKG-NH2; disulfide 1-6)")
"9100 nM (antagonist)"
>>> assay_result("CC(C)C[C@@H]1NC(=O)[C@H](Cc2ccccc2)NC(=O)[C@H](Cc2ccc(O)cc2)NC(=O)CCSSC[C@@H](C(=O)N2CCC[C@H]2C(=O)N[C@@H](CCCN)C(=O)NCC(N)=O)NC(=O)[C@H](CC(N)=O)NC1=O ([Mpa]YFLNCP[Orn]G-NH2; disulfide 1-6)")
"1400 nM (antagonist)"

All figures here come from ChEMBL document CHEMBL1141418.
